inhibition at 10 µM overview
- Test system: production of PGF2α in human pulmonary adenocarcinoma cell line A549
- run-description: Inhibition of PGF2α production in IL-1β-stimulated A549 cells (EIA)
- Type: cell-based
- test-conditions: 10 μM, IL-1β 10 ng/ml, 22 hours

> print(dat)
                    structure.smiles.string                            assayed.system  reported.result
1  O=C(Nc1ccc2c(c1)cc(-c1ccc(Cl)cc1)n2CCO)c1ccc(F)cc1C(F)(F)F  production of PGF2α in human pulmonary adenocarcinoma cell line A549            < 20%
2  CC(=O)OCCCn1c(-c2ccccc2)cc2cc(NC(=O)c3ccccc3Cl)ccc21  production of PGF2α in human pulmonary adenocarcinoma cell line A549            < 20%
3  COCCn1c(-c2ccccc2)cc2cc(NC(=O)c3ccccc3Cl)ccc21  production of PGF2α in human pulmonary adenocarcinoma cell line A549            < 20%
4  CCn1c(C2CCCCC2)cc2cc(NC(=O)c3ccccc3Cl)ccc21  production of PGF2α in human pulmonary adenocarcinoma cell line A549            < 20%

Next, consider the following compound.
Return inhibition at 10 µM for the following compound: O=C(Nc1ccc2c(c1)cc(C(=O)Nc1ccccc1)n2CCCO)c1ccccc1C(F)(F)F 13%

---

- System: production of PGF2α in human pulmonary adenocarcinoma cell line A549
- run-description: Inhibition of PGF2α production in IL-1β-stimulated A549 cells (EIA)
- Type: cell-based
- test-conditions: 10 μM, IL-1β 10 ng/ml, 22 hours
measure-name: inhibition at 10 µM

Here are 2 compounds together with their reported answers.
> print(dat)
                    structure.smiles.string  reported.result
1  CS(=O)(=O)n1c(CCc2ccccc2)cc2cc(NC(=O)c3ccccc3Cl)ccc21            < 20%
2  CCOC(=O)CCCn1c(-c2ccccc2)cc2cc(NC(=O)c3ccccc3Cl)ccc21            < 20%

Next, consider the following compound.
Return inhibition at 10 µM for the following compound: O=C(Nc1ccc2c(c1)cc(-c1ccc(F)cc1)n2CCO)c1c(Cl)cccc1Cl < 20%

---

- Tested on: production of PGE2 in human pulmonary adenocarcinoma cell line A549 (mPGES-1)
- run-description: Inhibition of PGE2 production in IL-1β-stimulated A549 cells (EIA)
- Format: cell-based
- test-conditions: IL-1β stimulated, read-out: pIC50 PGE2 (converted)
measure-name: IC50

Here are 3 compounds together with their reported answers.
> print(dat)
                    structure.smiles.string  measure.name  reported.result
1  CCn1c(C2CCCCC2)cc2cc(NC(=O)c3ccccc3Cl)ccc21          IC50          1.58 µM
2  O=C(Nc1ccc2c(c1)cc(-c1ccc(F)cc1)n2CCO)c1c(F)cccc1C(F)(F)F          IC50          25.1 µM
3  CC(=O)OCCCn1c(-c2ccccc2)cc2cc(NC(=O)c3ccccc3Cl)ccc21          IC50          7.94 µM

Next, consider the following compound.
Fetch value of IC50 on production of PGE2 in human pulmonary adenocarcinoma cell line A549 (mPGES-1) for CCOC(=O)CCCn1c(-c2ccccc2)cc2cc(NC(=O)c3ccccc3Cl)ccc21 . 3.98 µM
